The values you see were collected from patent US10457707B2.

System: Staphylococcus aureus, USA 300
*1 amine or outer side, *2 acyl side, *3 side chain or, on linkers, in order; H or OH if unused. Where a SMILES comes first, the peptide text is derived from it. Bridges are numbered along the chain shown (N, C = ends). [ ]: non-standard residue; d: D form. The star is where a group is joined. ξ: configuration not given here. Phe(3,5-F2) = N[C@@H](Cc1cc(F)cc(F)c1)C(=O)O; NH(1-Me-indolin-5-yl) = CN1CCc2cc(N*)ccc21; NH(4-OCF3-phenyl) = FC(F)(F)Oc1ccc(N*)cc1; Morpholine(3S-CO) = O=C(O)[C@@H]1COCCN1; NH(4-Cl-2-F-phenyl) = Fc1cc(Cl)ccc1N*; Pro(4R-Me) = C[C@H]1CN[C@H](C(=O)O)C1; NH(3,4-Me2-phenyl) = Cc1ccc(N*)cc1C; X9 = CC1(C)CC(C(=O)[*:2])N([*:1])C1; Hyp = O=C(O)[C@@H]1C[C@@H](O)CN1; NMeT = CN[C@H](C(=O)O)[C@@H](C)O; NH(4-Me-phenyl) = Cc1ccc(N*)cc1; aThr = C[C@H](O)[C@H](N)C(=O)O; Pip = O=C(O)[C@@H]1CCCCN1; ξPip = O=C(O)C1CCCCN1; CO = O=C([*:1])[*:2]; ξP = O=C(O)C1CCCN1
hey, just use Criterion met if measured MIC is less than 0.05 µM, otherwise Criterion not met

Solved cases below.
compound	system	category label
C[C@@H]1C[C@H]2C(=O)O[C@@H](C)[C@H](NC(=O)[C@H](Cc3cc(F)cc(F)c3)NC(=O)Nc3ccc(OC(F)(F)F)cc3)C(=O)N3CCC[C@H]3C(=O)N(C)[C@@H]([C@@H](C)O)C(=O)N[C@@H](C)C(=O)N2C1 [Compound 41] ({NH(4-OCF3-phenyl)-CO}-[Phe(3,5-F2)][aThr]P[NMeT]A[Pro(4R-Me)]; ester 2-C)	Staphylococcus aureus, USA 300	Criterion met
C[C@@H]1C[C@H]2C(=O)O[C@@H](C)[C@H](NC(=O)[C@H](Cc3cc(F)cc(F)c3)NC(=O)Nc3ccc4c(c3)CCN4C)C(=O)N3CCC[C@H]3C(=O)N3CCCC[C@H]3C(=O)N[C@@H](C)C(=O)N2C1 [Compound 310] ({NH(1-Me-indolin-5-yl)-CO}-[Phe(3,5-F2)][aThr]P[Pip]A[Pro(4R-Me)]; ester 2-C)	Staphylococcus aureus, USA 300	Criterion not met
Cc1ccc(NC(=O)N[C@@H](Cc2cc(F)cc(F)c2)C(=O)N[C@H]2COC(=O)C3CC(C)(C)CN3C(=O)[C@H](C)NC(=O)C3CCCCN3C(=O)C3CCCN3C2=O)cc1 (some centres unmarked) [Compound 49] ({NH(4-Me-phenyl)-CO}-[Phe(3,5-F2)]S[ξP][ξPip]A[X9]; ester 2-C)	Staphylococcus aureus, USA 300	Criterion not met
C[C@@H]1C[C@H]2C(=O)O[C@@H](C)[C@H](NC(=O)[C@H](Cc3cc(F)cc(F)c3)NC(=O)Nc3ccc(Cl)cc3F)C(=O)N3C[C@H](O)C[C@H]3C(=O)N3CCCC[C@H]3C(=O)N[C@@H](C)C(=O)N2C1 [Compound 329] ({NH(4-Cl-2-F-phenyl)-CO}-[Phe(3,5-F2)][aThr][Hyp][Pip]A[Pro(4R-Me)]; ester 2-C)	Staphylococcus aureus, USA 300	Criterion met
CN(C)[C@@H]1C(O)=C(C(N)=O)C(=O)[C@@]2(O)C(O)=C3C(=O)c4c(O)cccc4[C@@](C)(O)[C@H]3C[C@@H]12 [Tetracycline, tetracycline, reference compound]	Staphylococcus aureus, USA 300	Criterion not met

In plain terms, does Cc1ccc(NC(=O)N[C@@H](Cc2cc(F)cc(F)c2)C(=O)N[C@@H]2C(=O)N3C[C@H](O)C[C@H]3C(=O)N3CCOC[C@H]3C(=O)N[C@@H](C)C(=O)N3C[C@H](C)C[C@H]3C(=O)O[C@H]2C)cc1C [Compound 215] ({NH(3,4-Me2-phenyl)-CO}-[Phe(3,5-F2)][aThr][Hyp][Morpholine(3S-CO)]A[Pro(4R-Me)]; ester 2-C) come in under 0.05 µM for MIC? Criterion not met
